Note to self: these compounds have pKi reported for Alpha-2A adrenergic receptor (Homo sapiens, UniProt P08913) in various publications.
pKi: −log10 of the molar value.
measured.parameter: pKi

>>> recorded_result("C[C@H]1c2c([nH]c3ccc(C(F)(F)F)cc23)C[C@H]2CCN(CCC3(C(=O)O)CCCCC3)C[C@@H]21")
"< 5.70"
>>> recorded_result("Fc1cccc(-c2cncnc2)c1C1Cc2nccn2C1 (stereo not drawn)")
"< 5.48"
>>> recorded_result("C[C@H]1CN(C(=O)c2ccc(-c3cccc(OC(F)(F)F)c3)cc2)CCN1C(=O)c1ccc2cc[nH]c2c1")
"< 5.00"

---

pKi: −log10 of the molar value.
Field: pKi. System: Alpha-2A adrenergic receptor (Homo sapiens, UniProt P08913). Provenance: assorted publications.
Sequence (P08913 whole entry): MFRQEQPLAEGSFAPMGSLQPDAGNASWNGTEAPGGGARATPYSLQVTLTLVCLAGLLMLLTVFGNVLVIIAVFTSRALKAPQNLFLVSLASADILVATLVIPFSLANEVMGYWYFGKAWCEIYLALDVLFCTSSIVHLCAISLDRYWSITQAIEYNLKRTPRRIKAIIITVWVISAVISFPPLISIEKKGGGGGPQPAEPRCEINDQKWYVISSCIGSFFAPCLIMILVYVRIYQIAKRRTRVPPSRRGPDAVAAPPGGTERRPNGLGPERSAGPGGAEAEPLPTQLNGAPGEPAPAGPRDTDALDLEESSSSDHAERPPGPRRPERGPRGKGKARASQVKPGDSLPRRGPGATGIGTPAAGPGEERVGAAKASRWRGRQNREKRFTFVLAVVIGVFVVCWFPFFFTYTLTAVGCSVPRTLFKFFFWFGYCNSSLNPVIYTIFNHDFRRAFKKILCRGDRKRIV
measured.parameter: pKi

>>> recorded_result("c1ccc(C2(c3ccccc3)COC(C3=NCCN3)CO2)cc1 (stereo unspecified)")
"< 5.00"
>>> recorded_result("C[C@H]1CCCN1C(=O)c1ccc(-c2ccc3c(c2)CCN(CCN2CCCC2)C3=O)cc1")
"< 5.52"
>>> recorded_result("CC(Oc1ccccc1-c1cccnc1)C1=NCCN1 (stereo unspecified)")
6.86
>>> recorded_result("N#Cc1ccccc1[C@@H]1Cc2nccn2C1")
"< 5.35"
>>> recorded_result("Cl.O=S(=O)(c1ccc2ccccc2c1)c1n[nH]c2ccc(NC3CCNCC3)cc12")
"< 5.30"
>>> recorded_result("CCCCN1CCC(COC(=O)c2cc(Cl)c(N)c3c2OCCO3)CC1")
"< 6.00"
